- System: Schistosoma japonicum
- Method summary: Antischistosomal activity against Schistosoma japonicum infected in golden syrian hamster assessed as worm killing at 143 uM pretreated for 45 mins followed by compound washout measured after 14 days
- Type: functional

[
  {
    "Molecule": "O=[N+]([O-])c1cc(NC2CCCN(Cc3ccccc3C(F)(F)F)C2)ccc1CO (stereo not given)",
    "Activity": "83%"
  },
  {
    "Molecule": "O=[N+]([O-])c1cc(NC2CCCN(Cc3cccc(C(F)(F)F)c3)C2)ccc1CO (stereo not given)",
    "Activity": "2%"
  },
  {
    "Molecule": "O=[N+]([O-])c1cc(NC2CCCN(Cc3ccc(OC(F)(F)F)cc3)C2)ccc1CO (stereo not given)",
    "Activity": "10%"
  },
  {
    "Molecule": "O=[N+]([O-])c1cc(NC2CCN(Cc3ccc(OC(F)(F)F)cc3)C2)ccc1CO (stereo not given)",
    "Activity": "0%"
  },
  {
    "Molecule": "CC(C)NCC1CCc2cc(CO)c([N+](=O)[O-])cc2N1 (stereo not given) [OXAMNIQUINE]",
    "Activity": "0%"
  }
]
